- method_notes: Clearance in rat at 2 mg/kg,iv measured upto 24 hrs
- Format: ADME, organism-based
- particulars: in vivo
quantity_kind: clearance (mL/min/kg)
Report the value in mL/min/kg with no unit label.

stdin: Need clearance, item CC(=O)O[C@@]12CO[C@@H]1C[C@H](O)[C@@]1(C)C(=O)[C@H](O)C3=C(C)[C@@H](OC(=O)[C@H](OC(=O)CCC(=O)NCCCC[C@H](NC(=O)CC[C@@H](NC(=O)[C@H](C)NC(=O)/C=C/c4ccc(F)cc4Cl)C(N)=O)C(=O)O)[C@@H](NC(=O)OC(C)(C)C)c4ccccc4)C[C@@](O)([C@@H](OC(=O)c4ccccc4)[C@H]21)C3(C)C
stdout: 6.66
